# Protocol Details: label from the status in PepcDB records
Outcome Measure: protein production

MAKLSRKERHRLLLQKIKENPFITDEELAEEFGCSVQTIRLDRAILDIKEVRERIKEMAKESLGKLKTISPRDVVGEIIDIELGSYAIATFEPELWMTFSNSQMVKGQHIYAFAESIAMSVIDAKAALIGIANIKYKTPVFANDRLVARAELKKKRNNKYIVWVFIKRNNEEVFRGKFILVAIDDENKETGQTGV ... failed
KIGYGKANPTTRLWVGGLGPNTSLAALAREFDRFGSIRTIDHVKGDSFAYIQYESLDAAQAACAKMRGFPLGGPDRRLRVDFAK ... not failed
MGVNMRAETESRIFSVDEYVRPSNGEPIRSVVLETNDSVVVVWHAHPGQEIASHVHPHGQDTWTVISGEAEYHQGNGIVTHLKAGDIAIAKPGQVHGAMNSGPEPFIFVSVVAPGNAGFALAEK ... not failed
MWWWSSSTKGRSNLERFLLGITPKPPSFSLPQEQGKEEIEYFRLGDLWDCYDEMSAYGFGTQVDLNNGETVMQYYVPYLSAIQIHTNKPALLSRNQNEVAESESSEGWSDSESEKLLSRSMSNDSSKTWDAVSEDSVFDPDGSPLLKDRLGNLDFKYIERDPPHKRIPLTDKINVLVEKYPGLMTLRSVDMSPASWMAVAWYPIYHIPTCRNEKDLTTGFLTYHTLSSSFQDNVVEGDQSNNNEETEFCEDSVINKRMPLPPFGVTTYKMQGDLWGKTGFDQDRLLYLQSAADSWLKQLNVDHHDYNFFLNSSF ... failed
MRRGRGKGKKQNASAREDRGSGDEEKIPAYRRRGRPQKPMKDDFEEEEEEDDEEMVEKMEVEDEDEEIDDGSVTSKDLKERKRKMSNGSNTDLTEEENGLGSKPNTDDSTRSTSIGFRQNGSRRKSKPRRAAEAVVECNGV ... failed
MVKVTYDGVYVLSVKDDVPAADVLHAGDLITEIDGNAFKSSQEFIDYIHSKKVGDTVKINYKHGDKNEQADIKLTAIDKKGTPGIGITLVDDLEHHHHHH ... not failed

Field protein production (entry AHSSLGAPVHLWGTEEVAAWLEHLSLCEYKDIFTRHDIRGSELLHLERRDLKDLGVTKVGHMKRILCGIKELSRSAPAVEA ) reads failed

Field protein production (entry MTPDFQIVTQRLQLRLITADEAEELVQCIRQSQTLHQWVDWCHALFSQQEAEQFIQATRLNWVKAEAYGFGVFERQTQTLVGMVAINEFYHTFNMASLGYWIGDRYQRQGYGKEALTALILFCFERLELTRLEIVCDPENVPSQALALRCGANREQLAPNRFLYAGEPKAGIVFSLIP ) reads not failed
